Target: GTPase HRas (Homo sapiens) (UniProt P01112)
Sequence (P01112 whole entry, looked up): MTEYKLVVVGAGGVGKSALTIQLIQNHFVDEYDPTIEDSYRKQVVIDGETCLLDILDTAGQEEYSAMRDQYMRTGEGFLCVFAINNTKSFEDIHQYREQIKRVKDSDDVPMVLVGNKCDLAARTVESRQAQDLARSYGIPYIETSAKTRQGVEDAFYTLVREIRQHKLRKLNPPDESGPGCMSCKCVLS
Assay: Ras wt fluorescent GTP loading blockade – biochemical, wildtype, multiplex bead flow cytometry, dose response (AID 1335)
Conditions: bead-based flow cytometry, Bodipy-GTP binding to GST-Ras; at 100 µM (top of the series) unless noted
# GTP binding, percent of control per entry
Please respond with the number in % and leave the unit unwritten.

Below, 8 compounds whose answers are already recorded.
COc1ccccc1OCCn1cc(C(=O)O)c2cc(Cl)ccc21; 204
CCc1ccc(OCc2cccc(C(=O)O)c2)cc1; 87.5
CCN(c1ccc(N=Cc2c(O)n(Cc3ccc(OC)cc3)c(=O)c3ccccc23)cc1)C(C)C; 196
CC(=O)Nc1ccc(/C=N/NC(=O)CCN2CCN(c3ccccc3)CC2)cc1; 74.7
CC(=O)NC1CC2CCCC(C1)N2C(=O)Nc1ccccc1 (stereo unspecified); 152
O=[N+]([O-])c1ccc(/C=C/C2=NN(c3ccccc3)C(c3ccco3)C2)cc1 (stereo unspecified); 132
CCCN1C(=O)/C(=C/C=C2\N(CC)c3ccccc3C2(C)C)SC1=S; 127
Cc1ccc(/C=C(\CCC(=O)O)c2nc3ccccc3s2)cc1[N+](=O)[O-]; 70.3

Look at this compound and give its reported GTP binding, percent of control. O=S1(=O)N=C(N(CCO)/N=C/c2ccncc2)c2ccccc21 52.3

Data request, read-out GTP binding, percent of control, for O=C(CN1C(=O)S/C(=C/c2cccnc2)C1=O)N1CCOCC1 68.5

# get_value(readout='GTP binding, percent of control', item= Cc1cccc(CNCc2sc(C(=O)O)cc2C)c1 ) 77.2

Given NC(=S)N=Nc1c(O)[nH]c2cc(F)c(F)cc12 , state its recorded GTP binding, percent of control. 63.2

Please give the measured GTP binding, percent of control for this compound: CCOC(=O)c1cccnc1SCCc1ccccc1 155

Fill in: GTP binding, percent of control of COc1cc(/C=N/NC(=O)Nc2cccc3nsnc23)cc(OC)c1OC is ___ 105

What does the data say about its GTP binding, percent of control? Entry: CCOC(=O)c1ccc2ncc(-c3ccccc3)nc2c1 79.4

---

Quick reference for vesicle binding response among some compounds
Assay: reduced mouse 2C T cell binding to pMHC/ICAM-1 vesicles – MLPCN validation set, flow cytometry, LFA-1/ICAM-1 modulator project, pilot screen (AID 2523);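 note: mean PE anti-B7-1 fluorescence of CD8+ cells relative to row control; 100% = QL9-loaded vesicles with DMSO vehicle in the same plate row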
Details: 2C mouse CD8+ T cells, at 7 µM, stronger effect = lower value
Active and inactive are the calls of the source.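 Rule for the calls: active = response below a set limit, under 55% cells CD8-positive and vesicle-bound, and CD8 cells' 90th-percentile brightness under 279; inactive = the rest.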

Some solved entries appear below for comparison.
O=C(NCCO)c1ccc2[nH]c3ccccc3c2c1; 246% (inactive)
CCn1ccnc1CN(C)Cc1cn(-c2cccc(C)c2)nc1-c1cccc(F)c1; 145% (inactive)
Fc1ccc(-c2cc(-c3ccccc3)nc(-n3cccn3)n2)cc1; 11.1% (inactive)
COc1ccc(N2C(=O)[C@@H]3[C@H](C2=O)[C@H]2c4ccccc4C=CN2[C@@H]3C(C)=O)cc1; 176% (inactive)

Item CCCCNc1ccc(C(=O)OCCN(C)C)cc1 has what recorded vesicle binding response? 212% (inactive)

Sample Cc1ccc2[nH]c(=O)c(Cc3ccccc3)c(O)c2c1 — what was its vesicle binding response? 224% (inactive)

Report vesicle binding response for N#C/C(C(N)=O)=c1/ccc2c(c1)N1C3=C(CCCC3)CC3CCCCC31N=2 (centres undefined) please. 108% (inactive)

Need vesicle binding response, item CC(=O)[C@H]1CC[C@H]2[C@@H]3C[C@H](C)C4=CC(=O)CC[C@]4(C)[C@H]3[C@@H](O)C[C@]12C 151% (inactive)

Name the recorded vesicle binding response for Cn1cc(CN2CCC(C(=O)N3CCCCC3)CC2)c(-c2ccccc2F)n1 . 131% (inactive)

// lookup vesicle binding response for O=C(/C=C/c1ccc(F)cc1)N1CC[C@@]2(O)CCCC[C@H]2C1 198% (inactive)

If you can, please state the reported vesicle binding response value of O=C(CS(=O)(=O)Cc1ccccc1)NCc1ccc2c(c1)OCO2 . 123% (inactive)

State the recorded vesicle binding response for this entry: Cc1nc(NCc2ccco2)c(C#N)c2c1COC(C)(C)C2 99.2% (inactive)

For the compound shown here, COc1ccccc1N1CCN(CC(O)COc2cccc3ccccc23)CC1 (centres undefined) , give the reported vesicle binding response. 192% (inactive)

Form field: reported vesicle binding response of Cc1ccccc1NC(=O)C1(C)Cc2ccccc2C(=O)O1 (centres undefined) 161% (inactive)

Could you share which vesicle binding response value was measured for CCc1cc2c(C)cc(=O)oc2cc1OC(=O)C1CCCN1C(=O)OC(C)(C)C (centres undefined) ? 247% (inactive)

Which vesicle binding response value is on record for Cc1ccsc1C1NC(=O)c2ccccc2N1 (centres undefined) ? 266% (inactive)

Returns the measured vesicle binding response for the input compound. Input: CC1(C)Cc2ccccc2-c2nc(-c3ccccc3)oc(=O)c21 149% (inactive)

# vesicle binding response lookup, item CCc1cc2c(=O)c(-c3nc(C)cs3)coc2cc1OC(C)C(=O)NCCO (centres undefined) 143% (inactive)

Sample Cc1ccc(S(=O)(=O)NC(C(=O)Oc2cc3oc(=O)cc(C)c3cc2Cl)C(C)C)cc1 (centres undefined) — what was its vesicle binding response? 264% (inactive)

---

Target: GTPase HRas (Homo sapiens)
Assay: Ras wt fluorescent GTP loading blockade – biochemical, wildtype, multiplex bead flow cytometry, dose response (AID 1335)
Conditions: bead-based flow cytometry, Bodipy-GTP binding to GST-Ras; at 100 µM (top of the series) unless noted
// values below are reported GTP binding, percent of control
Unit % implied. Number only.

Cc1ccc(NC(=O)C2=C(c3ccccc3)S(=O)(=O)CCS2(=O)=O)cc1; 79.3
O=C(CSc1ccccc1)Nc1ccc(C(=O)Nc2cccc(O)c2)cc1; 77.9
Cc1ccc(C)c(OCc2ccc(C(=O)O)o2)c1; 87.7

Please give the measured GTP binding, percent of control for this compound: O=C(O)c1nnn(Cc2ccc(Br)cc2)c1C(=O)O 80.4

---

The following compounds are listed with their measured response values.
Target: Beta-2 adrenergic receptor (Homo sapiens) (UniProt P07550)
Sequence (P07550 whole entry, looked up): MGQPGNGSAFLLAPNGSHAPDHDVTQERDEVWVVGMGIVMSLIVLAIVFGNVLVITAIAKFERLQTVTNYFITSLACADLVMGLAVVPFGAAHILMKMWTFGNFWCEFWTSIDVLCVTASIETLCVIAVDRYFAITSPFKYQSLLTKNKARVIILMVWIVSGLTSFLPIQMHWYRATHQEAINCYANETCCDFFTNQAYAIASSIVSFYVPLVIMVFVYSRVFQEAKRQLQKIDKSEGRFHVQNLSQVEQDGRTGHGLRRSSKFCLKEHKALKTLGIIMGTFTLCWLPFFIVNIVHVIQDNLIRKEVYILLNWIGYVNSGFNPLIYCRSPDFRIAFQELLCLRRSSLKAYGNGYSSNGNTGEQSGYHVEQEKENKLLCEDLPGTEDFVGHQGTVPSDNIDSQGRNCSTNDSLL
Assay: agonist-induced loss of surface beta2AR – cell-based, FAP fluorogen, flow cytometry, validation set, pilot screen (AID 504459);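 note: agonist-driven loss of surface beta2AR via internalization measured by FAP dye flow cytometry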
Details: Am2.2-beta2AR cells, at 10 µM, stronger effect = higher value
The source made the active and inactive calls.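 The calls were made as follows: active = percent response above 42, roughly 3 SD of non-fluorescent test compounds; inactive = the rest.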

CCc1cc(-c2[nH]ncc2-c2ccc3c(c2)OCO3)c(O)cc1O; 4.41% (inactive)
CC(C)CCC1(CCNC(C)c2cccs2)CCOC(C)(C)C1 (stereo not drawn); 8.29% (inactive)

Consider now this further compound.
What value of response has been reported for the following compound? Cc1ccc2nc(N=C(N)N)nc(C)c2c1 -5.11% (inactive)

---

Measured GFP response vs DMSO values are reported for all entries that follow.
Test: TOR pathway GLN3 branch reporter MEP2-GFP changes – S. cerevisiae, multiplex flow cytometry, primary screen (AID 1867);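 note: median GFP channel fluorescence of barcode-gated MEP2-GFP cells measured by flow cytometry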
Conditions: S. cerevisiae MEP2-GFP strain, 3 h, at 10 µM, stronger effect = higher value, 100% means same as DMSO wells
Results filed as inconclusive are left out.
Your answer is read as %, so omit the unit and give the number.

These solved cases illustrate the format of a correct answer.
CC(NC(=O)c1ccc(N2CCNCC2)c([N+](=O)[O-])c1)C12CC3CC(CC(C3)C1)C2 (centres undefined); 111
CCCCN1C[C@H](O)[C@@H](O)[C@H](O)[C@H]1CO; 99.6
COc1c(C=O)c(CCN(C)C(=O)c2ccc(F)cc2)cc2c1OCO2; 104
CCc1nc2ccccc2c(NC(=O)CN2CC(C)CC(C)C2)c1C (centres undefined); 105

Reported GFP response vs DMSO for CNC(=O)Oc1ccc2c(c1)[C@]1(C)CCN(C)[C@@H]1N2C : what is it? 102

GET /values?readout=GFP response vs DMSO&item= CC1(C)S[C@@H]2[C@H](NC(=O)Cc3ccccc3)C(=O)N2[C@H]1C(=O)O 102

Requested field: GFP response vs DMSO. Item: Cn1c(=S)n(C)c2ccccc21 104

Please give the measured GFP response vs DMSO for this molecule: O=C(O)CCCCCN=C1CCc2ccccc2N1 132

# input molecule: O=C(N/N=C/c1ccc([N+](=O)[O-])o1)c1ccc(O)cc1 ; wanted: its GFP response vs DMSO 118

Requested field: GFP response vs DMSO. Item: O=C(O)c1ccc(-c2ccc(O)c(F)c2)cc1 105

So what's the measured GFP response vs DMSO for this one? O=C(NCc1ccc(N2CCCC2=O)cc1)c1ccc(F)cc1 106

// lookup GFP response vs DMSO for CCCC(=O)Nc1ncnc2c1ncn2[C@@H]1O[C@@H]2COP(=O)(O)O[C@H]2[C@H]1OC(=O)CCC 130

Give the measured GFP response vs DMSO of NC(N)=NC(N)=NCCc1ccccc1 . 112

Please look up its GFP response vs DMSO: COc1cc2c(cc1OC)C(C)=NC1(CCCCC1)C2 98.6
